Molecular target: CYP1A (Homo sapiens)
Construct: incubated with human liver microsomes; tissue Eurofins ITEMG232; host or cells: human liver microsomes
Sequence (P05177 whole entry): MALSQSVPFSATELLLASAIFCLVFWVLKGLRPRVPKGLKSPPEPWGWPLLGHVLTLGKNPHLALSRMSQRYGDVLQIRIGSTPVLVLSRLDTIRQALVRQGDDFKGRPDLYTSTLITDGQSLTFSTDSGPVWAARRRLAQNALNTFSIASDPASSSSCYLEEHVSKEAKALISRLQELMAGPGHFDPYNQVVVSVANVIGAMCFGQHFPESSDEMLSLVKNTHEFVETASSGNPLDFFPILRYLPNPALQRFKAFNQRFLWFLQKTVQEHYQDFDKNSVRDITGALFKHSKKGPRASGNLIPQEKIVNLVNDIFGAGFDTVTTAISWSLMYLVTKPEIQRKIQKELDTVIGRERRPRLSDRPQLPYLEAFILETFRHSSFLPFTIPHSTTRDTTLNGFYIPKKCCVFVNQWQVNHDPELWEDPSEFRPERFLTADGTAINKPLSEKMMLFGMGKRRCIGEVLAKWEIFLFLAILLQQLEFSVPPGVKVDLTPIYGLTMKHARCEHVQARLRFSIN
Assay: CYP inhibition in human liver microsomes, CYP1A
Format: in vitro ADME
Details: probe phenacetin, substrate phenacetin, read-out: CYP1A Inh %
PROPERTY LABEL: inhibition at 10 µM (%)
Answers are plain numbers, in %.

Sample records with inhibition at 10 µM:
Request: Given the molecule CCCCNC(=O)NS(=O)(=O)c1sc(CC(C)C)cc1-c1ccc(Cn2ccnc2C)cc1 , what is its reported inhibition at 10 µM?
Response: 10.5

Request: Given the molecule Cc1nccn1Cc1ccc(-c2cc(CC(C)C)sc2S(=O)(=O)NC(=O)NCCCC(F)(F)F)cc1F , what is its reported inhibition at 10 µM?
Response: 15

Request: Given the molecule Cc1nccn1Cc1ccc(-c2cc(CC(C)C)sc2S(=O)(=O)NC(=O)NCc2cc(Cl)ccn2)cc1F.O=C(O)C(F)(F)F , what is its reported inhibition at 10 µM?
Response: 13

Request: Given the molecule CC(C)Cc1cc(-c2ccc(Cn3ccnc3C(C)C)c(F)c2)c(S(=O)(=O)NC(=O)NCCC(F)(F)F)s1.O=C(O)C(F)(F)F , what is its reported inhibition at 10 µM?
Response: 5

Request: Given the molecule Cc1nccn1Cc1ccc(-c2cc(CC(C)C)sc2S(=O)(=O)NC(=O)NC(C)c2ccccn2)cc1F (centres unmarked) , what is its reported inhibition at 10 µM?
Response: 8

List the reported inhibition at 10 µM of each molecule below.
1. Cc1nccn1Cc1ccc(-c2cc(CC(C)C)sc2S(=O)(=O)NC(=O)NCc2nccn2C)cc1F
2. Cc1nccn1Cc1ccc(-c2cc(CC(C)C)sc2S(=O)(=O)NC(=O)NCCC(F)(F)F)cc1
3. Cc1cn(Cc2ccc(-c3cc(CC(C)C)sc3S(=O)(=O)NC(=O)NCc3ccccc3)cc2)c(C)n1

Response:
20
-4.2
-5

List the reported inhibition at 10 µM of each molecule below.
1. Cc1nccn1Cc1ccc(-c2cc(CC(C)C)sc2S(=O)(=O)NC(=O)NCC2CCC(F)(F)CC2)cc1F.O=C(O)C(F)(F)F
2. Cc1cn(Cc2ccc(-c3cc(CC(C)C)sc3S(=O)(=O)NC(=O)NCCC(F)(F)F)cc2)c(C)n1
3. Cc1nccn1Cc1ccc(-c2cc(CC(C)C)sc2S(=O)(=O)NC(=O)NCCCC(F)(F)F)cc1

Response:
1. -1
2. 21.2
3. 7.3

---

Assay: Metabolic stability in pooled human liver microsomes
Type: in vitro ADME
Conditions: pooled human liver microsomes 0.5 mg/ml, with 1 mM NADPH, 1 μM test compound, 37° C., read-out: T1/2, + NaDPH
PROPERTY LABEL: log10 half-life at 1 μM (log10 of the value in min)
Lab note - half-life at 1 μM converted to log10 from values in min.

Sample records with log10 half-life at 1 μM:
Request: Given the molecule Cc1nccn1Cc1ccc(-c2cc(CC(C)C)sc2S(=O)(=O)NC(=O)NCC2CCC(F)(F)CC2)cc1F.O=C(O)C(F)(F)F [Example 40] , what is its reported log10 half-life at 1 μM?
Response: 0.60

Request: Given the molecule Cc1nccn1Cc1ccc(-c2cc(CC(C)C)sc2S(=O)(=O)NC(=O)NCCCC(F)(F)F)cc1F [Example 18] , what is its reported log10 half-life at 1 μM?
Response: 1.48

List the reported log10 half-life at 1 μM of each molecule below.
1. Cc1nccn1Cc1ccc(-c2cc(CC(C)C)sc2S(=O)(=O)NC(=O)NCc2ccccc2)cc1 [Example 1]
2. CCc1nccn1Cc1ccc(-c2cc(CC(C)C)sc2S(=O)(=O)NC(=O)NCc2ccc(F)cc2)cc1F.O=C(O)C(F)(F)F [Example 32]
3. Cc1nccn1Cc1ccc(-c2cc(CC(C)C)sc2S(=O)(=O)NC(=O)NCc2cccs2)cc1F.O=C(O)C(F)(F)F [Example 35]
4. Cc1nccn1Cc1ccc(-c2cc(CC(C)C)sc2S(=O)(=O)NC(=O)NCCCC(F)(F)F)cc1 [Example 5]
5. Cc1nccn1Cc1ccc(-c2cc(CC(C)C)sc2S(=O)(=O)NC(=O)NC(C)c2ccccn2)cc1F (stereo not drawn) [Example 25]

Response:
1.38
0.85
1.65
1.40
1.78

List the reported log10 half-life at 1 μM of each molecule below.
1. Cc1nccn1Cc1ccc(-c2cc(CC(C)C)sc2S(=O)(=O)NC(=O)NCc2ccc(F)c(F)c2)cc1F.O=C(O)C(F)(F)F [Example 34]
2. Cc1nccn1Cc1ccc(-c2cc(CC(C)C)sc2S(=O)(=O)NC(=O)NCCC(F)(F)F)cc1F [Example 14]

Response:
1: 0.78; 2: 1.95
